System: 233499-124-R-J3-PDC complex spheroid viability, % test/control
Experiment: Anticancer human tumor 233499-124-R-J3-PDC patient-derived colon adenocarcinoma cell line growth inhibition
Settings: second compound 1 µM; first compound 0.1 µM; stronger effect = lower value
hey, just use label 1 if measured viability, T/C is less than 80%, otherwise label 0

[
  {
    "Compound": "CC(C)c1c(-c2ccccc2)nc2c(C#N)c[nH]n2c1=O + NC1CCC(NC2CC2c2ccccc2)CC1",
    "Answer Label": "label 0"
  },
  {
    "Compound": "O=C(c1cc(Cc2n[nH]c(=O)c3ccccc23)ccc1F)N1CCN(C(=O)C2CC2)CC1 + NC1CCC(NC2CC2c2ccccc2)CC1",
    "Answer Label": "label 0"
  },
  {
    "Compound": "CC(C)CC(NC(=O)CNC(=O)c1cc(Cl)ccc1Cl)B1OC(=O)CC(CC(=O)O)(C(=O)O)O1 (centres undefined) + NC1CCC(NC2CC2c2ccccc2)CC1",
    "Answer Label": "label 1"
  },
  {
    "Compound": "CC(C)CC(NC(=O)C(Cc1ccccc1)NC(=O)c1cnccn1)B(O)O (centres undefined) + NC1CCC(NC2CC2c2ccccc2)CC1",
    "Answer Label": "label 1"
  },
  {
    "Compound": "CC1COCCN1c1cc(C2(S(C)(=N)=O)CC2)nc(-c2ccnc3[nH]ccc23)n1 (centres undefined) + NC1CC1c1ccc(-c2cccc(O)c2)cc1",
    "Answer Label": "label 0"
  },
  {
    "Compound": "Nc1ncn(C2CC(O)C(CO)O2)c(=O)n1 (centres undefined) + NC1CC1c1ccc(-c2cccc(O)c2)cc1",
    "Answer Label": "label 0"
  },
  {
    "Compound": "CC(C)CC(NC(=O)CNC(=O)c1cc(Cl)ccc1Cl)B1OC(=O)CC(CC(=O)O)(C(=O)O)O1 (centres undefined) + NC1CC1c1ccc(-c2cccc(O)c2)cc1",
    "Answer Label": "label 1"
  },
  {
    "Compound": "CC1(C)CCC(CN2CCN(c3ccc(C(=O)NS(=O)(=O)c4ccc(NCC5CCOCC5)c([N+](=O)[O-])c4)c(Oc4cnc5[nH]ccc5c4)c3)CC2)=C(c2ccc(Cl)cc2)C1 + NC1CCC(NC2CC2c2ccccc2)CC1",
    "Answer Label": "label 0"
  },
  {
    "Compound": "O=C(C=Cn1cnc(-c2cc(C(F)(F)F)cc(C(F)(F)F)c2)n1)NNc1cnccn1 + NC1CC1c1ccc(-c2cccc(O)c2)cc1",
    "Answer Label": "label 0"
  },
  {
    "Compound": "Cn1ncnc1C1c2n[nH]c(=O)c3cc(F)cc(c23)NC1c1ccc(F)cc1 (centres undefined) + NC1CCC(NC2CC2c2ccccc2)CC1",
    "Answer Label": "label 0"
  },
  {
    "Compound": "O=C(c1cc(Cc2n[nH]c(=O)c3ccccc23)ccc1F)N1CCN(C(=O)C2CC2)CC1 + NC1CC1c1ccc(-c2cccc(O)c2)cc1",
    "Answer Label": "label 0"
  },
  {
    "Compound": "CC(C)c1c(-c2ccccc2)nc2c(C#N)c[nH]n2c1=O + NC1CC1c1ccc(-c2cccc(O)c2)cc1",
    "Answer Label": "label 0"
  },
  {
    "Compound": "CC[C@@]1(O)C(=O)OCc2c1cc1n(c2=O)Cc2cc3c(CN(C)C)c(O)ccc3nc2-1 + NC1CC1c1ccc(-c2cccc(O)c2)cc1",
    "Answer Label": "label 0"
  }
]

* * *

System: 233499-124-R-J3-PDC complex spheroid viability, % test/control
Experiment: Anticancer human tumor 233499-124-R-J3-PDC cell line growth inhibition;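 note: spheroids exposed to agents for one week before readout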
Conditions: compound alone; run of 02/01/2022
pIC50: −log10 of the molar value.
Measurement Kind: pIC50

[
  {
    "Compound": "NC1CC1c1ccc(-c2cccc(O)c2)cc1 (stereo unspecified)",
    "System Under Test": "233499-124-R-J3-PDC complex spheroid viability, % test/control",
    "Measurement Kind": "pIC50",
    "Result": "< 5.00"
  }
]

* * *

Test system: 233499-124-R-J3-PDC complex spheroid viability, % test/control
Experiment: Anticancer human tumor 233499-124-R-J3-PDC cell line growth inhibition;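 note: spheroids exposed to agents for one week before readout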
Settings: second compound 0.316 µM; first compound 0.1 µM; stronger effect = lower value
// values below are reported viability, T/C

[
  {
    "Compound": "CC[C@@]1(O)C(=O)OCc2c1cc1n(c2=O)Cc2cc3c(CN(C)C)c(O)ccc3nc2-1 + NC1CC1c1ccc(-c2cccc(O)c2)cc1",
    "viability, T/C (%)": 107
  },
  {
    "Compound": "O=C(c1cc(Cc2n[nH]c(=O)c3ccccc23)ccc1F)N1CCN(C(=O)C2CC2)CC1 + NC1CCC(NC2CC2c2ccccc2)CC1",
    "viability, T/C (%)": 102
  },
  {
    "Compound": "CC(C)CC(NC(=O)CNC(=O)c1cc(Cl)ccc1Cl)B1OC(=O)CC(CC(=O)O)(C(=O)O)O1 (stereo not given) + NC1CCC(NC2CC2c2ccccc2)CC1",
    "viability, T/C (%)": 0.08
  },
  {
    "Compound": "Cn1ncnc1C1c2n[nH]c(=O)c3cc(F)cc(c23)NC1c1ccc(F)cc1 (stereo not given) + NC1CCC(NC2CC2c2ccccc2)CC1",
    "viability, T/C (%)": 110
  },
  {
    "Compound": "O=C(c1cc(Cc2n[nH]c(=O)c3ccccc23)ccc1F)N1CCN(C(=O)C2CC2)CC1 + NC1CC1c1ccc(-c2cccc(O)c2)cc1",
    "viability, T/C (%)": 106
  },
  {
    "Compound": "CC(C)CC(NC(=O)C(Cc1ccccc1)NC(=O)c1cnccn1)B(O)O (stereo not given) + NC1CC1c1ccc(-c2cccc(O)c2)cc1",
    "viability, T/C (%)": 0.21
  },
  {
    "Compound": "Nc1ncn(C2CC(O)C(CO)O2)c(=O)n1 (stereo not given) + NC1CC1c1ccc(-c2cccc(O)c2)cc1",
    "viability, T/C (%)": 75
  },
  {
    "Compound": "CC(C)CC(NC(=O)CNC(=O)c1cc(Cl)ccc1Cl)B1OC(=O)CC(CC(=O)O)(C(=O)O)O1 (stereo not given) + NC1CC1c1ccc(-c2cccc(O)c2)cc1",
    "viability, T/C (%)": 0.16
  },
  {
    "Compound": "O=C(C=Cn1cnc(-c2cc(C(F)(F)F)cc(C(F)(F)F)c2)n1)NNc1cnccn1 + NC1CCC(NC2CC2c2ccccc2)CC1",
    "viability, T/C (%)": 59.2
  },
  {
    "Compound": "CC1COCCN1c1cc(-c2ccnn2C)c2ccnc(-c3ccn[nH]3)c2n1 (stereo not given) + NC1CC1c1ccc(-c2cccc(O)c2)cc1",
    "viability, T/C (%)": 36.6
  },
  {
    "Compound": "CC1(C)CCC(CN2CCN(c3ccc(C(=O)NS(=O)(=O)c4ccc(NCC5CCOCC5)c([N+](=O)[O-])c4)c(Oc4cnc5[nH]ccc5c4)c3)CC2)=C(c2ccc(Cl)cc2)C1 + NC1CC1c1ccc(-c2cccc(O)c2)cc1",
    "viability, T/C (%)": 102
  },
  {
    "Compound": "Nc1ncn(C2CC(O)C(CO)O2)c(=O)n1 (stereo not given) + NC1CCC(NC2CC2c2ccccc2)CC1",
    "viability, T/C (%)": 86.8
  },
  {
    "Compound": "CC1(C)CCC(CN2CCN(c3ccc(C(=O)NS(=O)(=O)c4ccc(NCC5CCOCC5)c([N+](=O)[O-])c4)c(Oc4cnc5[nH]ccc5c4)c3)CC2)=C(c2ccc(Cl)cc2)C1 + NC1CCC(NC2CC2c2ccccc2)CC1",
    "viability, T/C (%)": 109
  },
  {
    "Compound": "O=C(C=Cn1cnc(-c2cc(C(F)(F)F)cc(C(F)(F)F)c2)n1)NNc1cnccn1 + NC1CC1c1ccc(-c2cccc(O)c2)cc1",
    "viability, T/C (%)": 81.2
  },
  {
    "Compound": "CC[C@@]1(O)C(=O)OCc2c1cc1n(c2=O)Cc2cc3c(CN(C)C)c(O)ccc3nc2-1 + NC1CCC(NC2CC2c2ccccc2)CC1",
    "viability, T/C (%)": 66.1
  },
  {
    "Compound": "CC(C)CC(NC(=O)C(Cc1ccccc1)NC(=O)c1cnccn1)B(O)O (stereo not given) + NC1CCC(NC2CC2c2ccccc2)CC1",
    "viability, T/C (%)": 1.83
  },
  {
    "Compound": "COc1ccc([C@@H](O)c2cc(-c3ncnc4cc(N5CCOCC5)ccc34)c(F)cc2Cl)nn1 + NC1CC1c1ccc(-c2cccc(O)c2)cc1",
    "viability, T/C (%)": 98.3
  },
  {
    "Compound": "CC1COCCN1c1cc(C2(S(C)(=N)=O)CC2)nc(-c2ccnc3[nH]ccc23)n1 (stereo not given) + NC1CCC(NC2CC2c2ccccc2)CC1",
    "viability, T/C (%)": 98.8
  },
  {
    "Compound": "CC(C)c1c(-c2ccccc2)nc2c(C#N)c[nH]n2c1=O + NC1CCC(NC2CC2c2ccccc2)CC1",
    "viability, T/C (%)": 110
  },
  {
    "Compound": "CC1COCCN1c1cc(C2(S(C)(=N)=O)CC2)nc(-c2ccnc3[nH]ccc23)n1 (stereo not given) + NC1CC1c1ccc(-c2cccc(O)c2)cc1",
    "viability, T/C (%)": 114
  },
  {
    "Compound": "COc1ccc([C@@H](O)c2cc(-c3ncnc4cc(N5CCOCC5)ccc34)c(F)cc2Cl)nn1 + NC1CCC(NC2CC2c2ccccc2)CC1",
    "viability, T/C (%)": 96.8
  },
  {
    "Compound": "CC1COCCN1c1cc(-c2ccnn2C)c2ccnc(-c3ccn[nH]3)c2n1 (stereo not given) + NC1CCC(NC2CC2c2ccccc2)CC1",
    "viability, T/C (%)": 39.1
  },
  {
    "Compound": "COc1cc(Nc2ncc3c(n2)-c2ccc(Cl)cc2C(c2c(F)cccc2OC)=NC3)ccc1C(=O)O + NC1CC1c1ccc(-c2cccc(O)c2)cc1",
    "viability, T/C (%)": 62.1
  },
  {
    "Compound": "CC(C)c1c(-c2ccccc2)nc2c(C#N)c[nH]n2c1=O + NC1CC1c1ccc(-c2cccc(O)c2)cc1",
    "viability, T/C (%)": 110
  },
  {
    "Compound": "Cn1ncnc1C1c2n[nH]c(=O)c3cc(F)cc(c23)NC1c1ccc(F)cc1 (stereo not given) + NC1CC1c1ccc(-c2cccc(O)c2)cc1",
    "viability, T/C (%)": 89.3
  }
]
